experiment: Ratio of Ki value at -40 mV to that of -80 mV was determined; assay type: functional
# note: exactly 2 is not below, so it is Not met; use Met for Ratio strictly under it

compound="NCCCNCCCCCCCCNC(=O)C(Cc1ccc(O)cc1)NC(=O)/C=C/c1ccccc1 (stereo not given)" label_value=Met

Shift focus to the following entry.
Quick check: Ratio of NCCCNCCCCCCCCNC(=O)C(Cc1ccc(O)cc1)NC(=O)Cc1ccccc1 (stereo not given) under 2? Not met

* * *

Item-by-item account of Ki
molecular target: Glutamate receptor 1 (Homo sapiens); assay: Inhibition of the (-80 mV) current elicited by 100 uM glutamate by simultaneous co-application in xenopus oocytes injected with GluR1 flop RNA.; format: cell-based, Oocyte
Sequence (P42261 whole entry): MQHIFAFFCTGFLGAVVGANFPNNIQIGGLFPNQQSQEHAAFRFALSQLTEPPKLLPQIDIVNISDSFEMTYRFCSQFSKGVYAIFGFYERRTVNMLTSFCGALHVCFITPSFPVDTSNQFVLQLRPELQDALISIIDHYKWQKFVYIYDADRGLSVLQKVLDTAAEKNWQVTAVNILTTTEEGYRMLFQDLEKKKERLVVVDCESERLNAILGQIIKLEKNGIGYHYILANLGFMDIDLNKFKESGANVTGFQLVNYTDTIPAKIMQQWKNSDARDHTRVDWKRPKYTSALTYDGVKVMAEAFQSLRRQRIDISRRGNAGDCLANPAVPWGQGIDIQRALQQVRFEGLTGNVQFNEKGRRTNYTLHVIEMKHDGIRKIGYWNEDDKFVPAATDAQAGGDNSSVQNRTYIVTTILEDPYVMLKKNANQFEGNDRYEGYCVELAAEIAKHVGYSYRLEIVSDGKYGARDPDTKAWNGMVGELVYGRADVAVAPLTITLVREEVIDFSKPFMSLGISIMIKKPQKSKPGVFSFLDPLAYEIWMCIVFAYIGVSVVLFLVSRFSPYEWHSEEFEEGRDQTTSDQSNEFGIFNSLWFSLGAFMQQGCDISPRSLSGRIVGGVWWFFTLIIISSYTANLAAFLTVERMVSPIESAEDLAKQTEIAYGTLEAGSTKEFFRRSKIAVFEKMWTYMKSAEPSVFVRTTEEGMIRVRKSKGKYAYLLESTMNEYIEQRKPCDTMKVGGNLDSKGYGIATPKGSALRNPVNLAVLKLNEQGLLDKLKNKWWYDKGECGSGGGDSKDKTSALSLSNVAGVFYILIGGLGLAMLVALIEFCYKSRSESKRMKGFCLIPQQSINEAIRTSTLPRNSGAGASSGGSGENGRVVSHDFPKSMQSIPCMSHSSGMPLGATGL
Reply with just the number (in µM).

Here is how some molecules turned out for Ki.
molecule="CCCC(=O)NC(Cc1ccc(O)cc1)C(=O)NCCCCCCCCNCCCN (stereo unspecified)" unit_symbol=µM recorded_measurement=0.065
molecule="NCCCNCCCCCCCCNC(=O)C(Cc1ccc(O)cc1)NC(=O)c1ccccc1 (stereo unspecified)" unit_symbol=µM recorded_measurement=0.13
molecule="NCCCNCCCCCCCCNC(=O)C(Cc1ccc(O)cc1)NC(=O)c1cccnc1 (stereo unspecified)" unit_symbol=µM recorded_measurement=0.088

# Ki of CCC(=O)NC(Cc1ccc(O)cc1)C(=O)NCCCCCCCCNCCCN (stereo unspecified) = 0.1

Memo: NCCCNCCCCCCCCNC(=O)C(Cc1ccc(O)cc1)NC(=O)/C=C/c1ccccc1 (stereo unspecified) , reported Ki: 0.11

Recorded result, NCCCNCCCCCCCCNC(=O)C(Cc1ccc(O)cc1)NC(=O)C1CCCCC1 (stereo unspecified) , Ki: 0.078

Data point: NCCCNCCCCCCCCNC(=O)C(Cc1ccc(O)cc1)NC(=O)c1ccccn1 (stereo unspecified) ; Ki = 0.13

Reported Ki ( NCCCNCCCCCCCCNC(=O)C(Cc1ccc(O)cc1)NC(=O)Cc1ccccc1 (stereo unspecified) ) = 0.11

Entry CC(C)(C)C(=O)NC(Cc1ccc(O)cc1)C(=O)NCCCCCCCCNCCCN (stereo unspecified) , Ki reported as 0.09

// recorded Ki for NCCCNCCCCCCCCNC(=O)C(Cc1ccc(O)cc1)NC(=O)c1ccncc1 (stereo unspecified) : 0.064

CCCCCC(=O)NC(Cc1ccc(O)cc1)C(=O)NCCCCCCCCNCCCN (stereo unspecified) has a reported Ki of 0.068
